Hello, the source for this data is ChEMBL document CHEMBL3286173, in case you need it.

- tgt: Pancreatic alpha-amylase (Sus scrofa) (UniProt P00690)
- Sequence (P00690 whole entry): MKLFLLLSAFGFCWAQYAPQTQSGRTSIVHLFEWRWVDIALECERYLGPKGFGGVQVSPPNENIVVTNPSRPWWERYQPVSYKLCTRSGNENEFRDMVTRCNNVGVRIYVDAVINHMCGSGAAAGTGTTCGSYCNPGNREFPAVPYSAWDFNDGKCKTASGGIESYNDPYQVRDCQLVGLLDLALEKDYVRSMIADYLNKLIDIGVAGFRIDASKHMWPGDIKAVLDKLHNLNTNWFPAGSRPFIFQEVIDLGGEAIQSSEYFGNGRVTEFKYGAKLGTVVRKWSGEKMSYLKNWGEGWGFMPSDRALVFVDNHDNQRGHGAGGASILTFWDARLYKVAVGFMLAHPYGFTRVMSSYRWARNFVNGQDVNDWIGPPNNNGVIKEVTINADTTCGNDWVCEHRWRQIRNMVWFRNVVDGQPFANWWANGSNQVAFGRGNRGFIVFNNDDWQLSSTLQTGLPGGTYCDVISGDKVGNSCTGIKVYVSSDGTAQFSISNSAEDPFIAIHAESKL
- measurement-protocol: Inhibition pig alpha-amylase at 50 to 300 ug/ml pretreated for 30 mins followed by addition of 1% starch for 10 mins by spectrometer
recorded-metric: inhibition (%)

// below: answered compounds
> print(dat)
                                   compound  recorded.metric  unit.abbreviation  value.observed
1  CCOC(=O)C1=C(C)NC(=S)NC1c1ccc(OC)cc1 (stereo not given)       inhibition                  %            66.5
2  CCOC(=O)C1=C(C)NC(=O)NC1c1ccccc1 (stereo not given)       inhibition                  %               0
3  CCOC(=O)C1=C(C)NC(=O)NC1c1ccc2c(c1)OCO2 (stereo not given)       inhibition                  %               0
4  CCOC(=O)C1=C(C)NC(=S)NC1c1cccc(OC)c1 (stereo not given)       inhibition                  %               0
5  CCOC(=O)C1=C(C)NC(=O)NC1c1ccccc1F (stereo not given)       inhibition                  %               0
6  CCOC(=O)C1=C(C)NC(=O)NC1c1ccc([N+](=O)[O-])cc1 (stereo not given)       inhibition                  %               0
7   CCOC(=O)C1=C(C)NC(=S)N[C@H]1c1cccc(O)c1       inhibition                  %               0

P = CCOC(=O)C1=C(C)NC(=O)NC1c1ccc(OC)cc1 (stereo not given)
Q = CCOC(=O)C1=C(C)NC(=O)NC1c1ccc(F)cc1 (stereo not given)
R = CCOC(=O)C1=C(C)NC(=O)NC1c1cccc([N+](=O)[O-])c1 (stereo not given)
*Q* Parameters: sort_field (inhibition), sort_dir (desc). Order the labels as requested and give them as your answer.
*A* Q, R, P
(Q: 63.8%, R: 26.5%, P: 0%)
